Assay: qHTS assay to identify small molecule antagonists of the sonic hedgehog signaling (Shh) pathway (AID 1259369); also: nearly all actives have a fitted effect of over 45% in size
Details: NIH/3T3 Gli1-Luc reporter, Shh antagonist, luminescence 24 h; series mostly up to 92.4 µM
Records with an inconclusive call do not appear. Calls of active or inactive are those of the source. Calls follow the shape of the full dose curve.
Your reply should match one of these outcome classes. t for active, f for inactive

q: Look up the recorded call for Cc1ccc(C(=O)c2cc(O)c(O)c([N+](=O)[O-])c2)cc1 in this test.
a: t

---

Experiment: Human pregnane X receptor (PXR) small molecule agonists, qHTS cell viability counter screen (AID 1346977); also: nearly all actives have a fitted effect of over 50% in size
Details: PXR-Luc HepG2 viability, CellTiter-Fluor, 24 h; series mostly up to 92.4 µM
Results filed as inconclusive are left out. Calls of active or inactive are those of the source. Calls come from the whole dose curve; as a rule, active = well fitted cell-killing curve with a large enough effect in the repeat runs; inconclusive = weak or mixed curves, or effect the other way; inactive = flat fitted curve, though single readings scatter.
In this exercise, the only acceptable responses are true (1) (active), false (0) (inactive)

The examples below pair each entry with its known result.
CNCCCC12CCC(c3ccccc31)c1ccccc12 : true (1)
CCCCCCCCCC(=O)OC : false (0)

We now examine a further compound.
q: Would you mind telling me which call this test gave O=S(=O)(O)c1ccc(O)cc1 ?
a: false (0)

---

Target: Thyrotropin receptor (Homo sapiens)
Assay: qHTS assay to identify small molecule antagonists of the thyroid stimulating hormone receptor (TSHR) signaling pathway (AID 1259385); also: nearly all actives have a fitted effect of over 20% in size
Details: TSHR-HEK293 cAMP HTRF, TSH-stimulated antagonist mode; series mostly up to 92.4 µM
Records with an inconclusive call do not appear. The source made the active and inactive calls. Calls come from the whole dose curve.
Would you mind answering with one of these outcomes? active, inactive

CC(=O)C1(C)CC2=C(CCCC2(C)C)CC1C (stereo not drawn) : active
CCCCC(CC)COC(=O)c1ccc(N(C)C)cc1 (stereo not drawn) : inactive
CC(=O)CC/C=C(\C)CCC=C(C)C : inactive
O=C1c2cccc(O)c2C(=O)c2c(O)cccc21 : inactive

q: Which result was noted for this compound in the test: c1ccc2c(c1)Oc1ccccc1S2
a: inactive

q: Hi team, can someone confirm the assay call for CCC(C)c1ccccc1O (stereo not drawn) ?
a: inactive

q: Can you look up the reported call for COC(=O)C1=C(C)NC(C)=C(C(=O)OCCN(C)Cc2ccccc2)C1c1cccc([N+](=O)[O-])c1 (stereo not drawn) for me?
a: inactive

q: # outcome recorded in this test, key = OC[C@H]1O[C@@H]2O[C@H]3[C@H](O)[C@@H](O)[C@@H](O[C@H]4[C@H](O)[C@@H](O)[C@@H](O[C@H]5[C@H](O)[C@@H](O)[C@@H](O[C@H]6[C@H](O)[C@@H](O)[C@@H](O[C@H]7[C@H](O)[C@@H](O)[C@@H](O[C@H]8[C@H](O)[C@@H](O)[C@@H](O[C@H]1[C@H](O)[C@H]2O)O[C@@H]8CO)O[C@@H]7CO)O[C@@H]6CO)O[C@@H]5CO)O[C@@H]4CO)O[C@@H]3CO
a: inactive

---

Target: Thyrotropin receptor (Homo sapiens) (UniProt P16473)
Sequence (P16473 whole entry, looked up): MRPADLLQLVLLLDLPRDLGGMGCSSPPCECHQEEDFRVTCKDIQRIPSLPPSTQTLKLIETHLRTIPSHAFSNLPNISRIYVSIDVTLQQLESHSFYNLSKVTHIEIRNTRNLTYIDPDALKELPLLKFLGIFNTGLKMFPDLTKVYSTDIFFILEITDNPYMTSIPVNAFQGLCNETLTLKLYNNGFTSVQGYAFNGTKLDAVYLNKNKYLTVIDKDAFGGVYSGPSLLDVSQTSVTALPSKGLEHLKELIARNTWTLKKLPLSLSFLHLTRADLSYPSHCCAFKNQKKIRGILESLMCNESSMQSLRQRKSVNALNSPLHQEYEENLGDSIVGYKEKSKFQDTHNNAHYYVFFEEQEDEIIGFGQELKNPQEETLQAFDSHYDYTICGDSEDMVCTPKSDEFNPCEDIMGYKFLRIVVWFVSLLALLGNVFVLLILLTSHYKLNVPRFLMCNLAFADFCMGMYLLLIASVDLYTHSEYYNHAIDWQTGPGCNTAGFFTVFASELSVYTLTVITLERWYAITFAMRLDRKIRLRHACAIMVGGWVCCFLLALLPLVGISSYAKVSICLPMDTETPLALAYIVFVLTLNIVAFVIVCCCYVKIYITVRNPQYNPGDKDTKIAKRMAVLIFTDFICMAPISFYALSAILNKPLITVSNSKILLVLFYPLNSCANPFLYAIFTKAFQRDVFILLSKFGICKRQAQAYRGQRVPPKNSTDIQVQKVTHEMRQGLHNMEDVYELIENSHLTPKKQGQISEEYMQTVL
Test: qHTS assay to identify small molecule antagonists of the thyroid stimulating hormone receptor (TSHR) signaling pathway (AID 1259385); also: nearly all actives have a fitted effect of over 20% in size
Conditions: TSHR-HEK293 cAMP HTRF, TSH-stimulated antagonist mode; series mostly up to 92.4 µM
Results filed as inconclusive are left out. Activity calls are given as the source filed them. Calls follow the shape of the full dose curve.
Readout Name: outcome

Below: 4 compounds and their reported outcome.
CC(=O)Oc1ccccc1C(=O)Nc1ncc([N+](=O)[O-])s1 : inactive
O=CCc1ccccc1 : inactive
Brc1cc(Oc2cc(Br)c(Br)c(Br)c2Br)c(Br)c(Br)c1Br : inactive
Nc1ccc(Cl)cc1Cl : inactive

q: Consider the compound CCCCc1oc2ccccc2c1C(=O)c1cc(I)c(OCCN(CC)CC)c(I)c1 and give its recorded outcome.
a: inactive

q: # return recorded outcome for input O=C(Nc1ccc([N+](=O)[O-])cc1Cl)c1cc(Cl)ccc1O
a: inactive

Entry source: PubChem BioAssay (Tox21)
